biological target: Androgen Receptor (AR) protein (Homo sapiens, UniProt P10275, T878A); construct: endogenous in cells; host or cells: LNCaP; experiment: Androgen Receptor (AR) protein degradation assay in LNCaP cells, western blotting; type: cell-based; details: 20 h, 0.1 μM compound
Sequence (P10275 whole entry T878A): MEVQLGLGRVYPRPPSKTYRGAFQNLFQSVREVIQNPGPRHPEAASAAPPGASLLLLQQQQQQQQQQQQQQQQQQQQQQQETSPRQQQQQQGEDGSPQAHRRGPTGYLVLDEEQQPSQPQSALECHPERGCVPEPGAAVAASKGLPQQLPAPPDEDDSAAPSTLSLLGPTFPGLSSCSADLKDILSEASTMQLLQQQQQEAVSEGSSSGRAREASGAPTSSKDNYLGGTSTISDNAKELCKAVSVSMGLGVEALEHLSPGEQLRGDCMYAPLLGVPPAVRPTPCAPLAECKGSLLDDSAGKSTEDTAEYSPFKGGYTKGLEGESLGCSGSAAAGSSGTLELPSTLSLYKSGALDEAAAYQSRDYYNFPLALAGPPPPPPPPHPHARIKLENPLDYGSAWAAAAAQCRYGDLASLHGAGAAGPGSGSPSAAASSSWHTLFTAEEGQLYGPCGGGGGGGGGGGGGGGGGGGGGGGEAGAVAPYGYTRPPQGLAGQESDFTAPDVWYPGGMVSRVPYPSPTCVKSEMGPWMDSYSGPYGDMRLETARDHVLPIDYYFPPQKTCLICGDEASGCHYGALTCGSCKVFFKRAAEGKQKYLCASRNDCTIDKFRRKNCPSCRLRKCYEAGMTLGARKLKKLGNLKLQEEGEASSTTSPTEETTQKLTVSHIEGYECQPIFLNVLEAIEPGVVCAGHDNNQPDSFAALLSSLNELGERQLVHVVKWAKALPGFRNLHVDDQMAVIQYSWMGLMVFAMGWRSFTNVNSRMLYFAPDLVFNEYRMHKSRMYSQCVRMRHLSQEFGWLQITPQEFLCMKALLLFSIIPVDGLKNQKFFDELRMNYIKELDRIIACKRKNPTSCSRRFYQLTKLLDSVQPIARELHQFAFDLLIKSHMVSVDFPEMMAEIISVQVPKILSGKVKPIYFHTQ
Sequence (Q96SW2 whole entry partner): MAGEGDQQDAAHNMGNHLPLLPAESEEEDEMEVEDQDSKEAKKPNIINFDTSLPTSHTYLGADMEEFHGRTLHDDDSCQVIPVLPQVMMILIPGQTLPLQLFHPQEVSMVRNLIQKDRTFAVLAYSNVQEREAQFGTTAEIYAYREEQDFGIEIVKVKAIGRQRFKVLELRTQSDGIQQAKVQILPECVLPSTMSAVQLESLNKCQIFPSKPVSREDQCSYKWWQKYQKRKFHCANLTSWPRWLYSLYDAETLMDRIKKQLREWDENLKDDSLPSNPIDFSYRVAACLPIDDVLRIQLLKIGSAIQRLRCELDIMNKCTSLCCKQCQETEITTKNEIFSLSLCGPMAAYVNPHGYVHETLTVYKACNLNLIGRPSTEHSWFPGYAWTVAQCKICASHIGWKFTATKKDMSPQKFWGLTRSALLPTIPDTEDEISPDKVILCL
measure: inhibition at 0.1 µM

compound | target-under-test | val
N#Cc1ccc(N2CCC(C(=O)Nc3ccc(OCC4CN(CC5CCN(c6ccc7c(c6)C(=O)N(C6CCC(=O)NC6=O)C7=O)CC5)C4)cn3)CC2)cc1C(F)(F)F (centres unmarked) | Androgen Receptor (AR) protein (Homo sapiens, UniProt P10275, T878A) | 97%
C[C@@H]1CN(CC2CCN(c3ccc(NC(=O)C4CCN(c5ccc(C#N)c(C(F)(F)F)c5)CC4)nc3)CC2)CCN1CC1CN(c2ccc3c(c2)C(=O)N(C2CCC(=O)NC2=O)C3=O)C1 (some centres unmarked) | Androgen Receptor (AR) protein (Homo sapiens, UniProt P10275, T878A) | 98%
N#Cc1ccc(N2CCC(C(=O)Nc3ccc(N4CC[C@H](CN5CC6(CCN(c7ccc8c(c7)C(=O)N(C7CCC(=O)NC7=O)C8=O)CC6)C5)C4)cn3)CC2)cc1C(F)(F)F (some centres unmarked) | Androgen Receptor (AR) protein (Homo sapiens, UniProt P10275, T878A) | 95%
N#Cc1ccc(N2CCC(C(=O)Nc3ccc(N4CC5(CCN(CC6CN(c7ccc8c(c7)C(=O)N(C7CCC(=O)NC7=O)C8=O)C6)CC5)C4)cn3)CC2)cc1Cl (centres unmarked) | Androgen Receptor (AR) protein (Homo sapiens, UniProt P10275, T878A) | 88%
N#Cc1ccc(N2CCC(C(=O)Nc3ccc(CN4CCC(CN5CCN(c6ccc7c(c6)C(=O)N(C6CCC(=O)NC6=O)C7=O)CC5)CC4)cn3)CC2)cc1C(F)(F)F (centres unmarked) | Androgen Receptor (AR) protein (Homo sapiens, UniProt P10275, T878A) | 58%

###

molecular target: Androgen Receptor (AR) protein (Homo sapiens, UniProt P10275, T878A); construct: endogenous in cells; host or cells: LNCaP; assay: Androgen Receptor (AR) protein degradation assay in LNCaP cells, western blotting; format: cell-based; conditions: 20 h, 1 μM compound
measure: inhibition at 1 µM (%)

compound | val
N#Cc1ccc(N2CCC(C(=O)Nc3ccc(N4CCC(CN5CCN(C6CN(c7ccc8c(n7)CN(C7CCC(=O)NC7=O)C8=O)C6)CC5)CC4)cn3)CC2)cc1C(F)(F)F (centres unmarked) | 72
N#Cc1ccc(N2CCC(C(=O)Nc3ccc(N4CCC(CN5CCN(C[C@@H]6CCN(c7ccc8c(c7)C(=O)N(C7CCC(=O)NC7=O)C8=O)C6)CC5)CC4)cn3)CC2)cc1C(F)(F)F (some centres unmarked) | 98
N#Cc1ccc(N2CCC(C(=O)Nc3ncc(N4CCC(CN5CCN(CC6CCN(c7cc8c(cc7F)C(=O)N(C7CCC(=O)NC7=O)C8=O)CC6)CC5)CC4)cn3)CC2)cc1C(F)(F)F (centres unmarked) | 84
N#Cc1ccc(N2CCC(C(=O)Nc3ncc(N4CCC(CN5CCN(CC6CCN(c7ccc8c(c7)C(=O)N(C7CCC(=O)NC7=O)C8=O)CC6)CC5)CC4)cn3)CC2)cc1C(F)(F)F (centres unmarked) | 78
N#Cc1ccc(N2CCC(C(=O)Nc3ccc(N4CCC(CCN5CCN(c6cc7c(cc6F)C(=O)N(C6CCC(=O)NC6=O)C7=O)CC5)CC4)cn3)CC2)cc1C(F)(F)F (centres unmarked) | 67
